All figures here come from patent US20230003721A1.

# System: primary neurons
# assayDetails: CellTiter-Glo luminescence-based ATP assay
# Type: cell-based, mouse
# studyConditions: Mus musculus, Primary neuron; maximal percent increase relative to in-plate DMSO controls, dose response; read-out: ATP (Effect-size)
Structures can show the parent of a compound that is named as a salt.
Field: Emax. Provide a value for each of the compounds that follow.
Report as: number unit

Quick request: Emax for each listed item, please.
1. COC(=O)[C@H]1[C@H]2C[C@@H]3c4[nH]c5cc(OC)ccc5c4CCN3C[C@H]2C[C@@H](OC(=O)c2cc(OC)c(OC)c(OC)c2)[C@@H]1OC
2. OC(CCN1CCCC1)(c1ccccc1)C1CCCCC1 (stereo not shown) [procyclidine hydrochloride]
3. CCCCOc1ccc(C(=O)CCN2CCCCC2)cc1 [DYCLONINE HYDROCHLORIDE]
4. COC(=O)[C@H]1[C@H]2C[C@H]3c4[nH]c5ccccc5c4CCN3C[C@H]2CC[C@@H]1O [rauwolscine hydrochloride]

RESULT:
1: 20.5%; 2: 18.7%; 3: 20.7%; 4: 20.9%
